Reported half-life at 20 µM values for the following molecules.
Assay: Microsomal Stability Assay (Examples 6 and 8)
Type: in vitro ADME, mouse
Settings: CD-1, mouse, liver microsomes, pH 7.4, independent test III; read-out: t1/2 III
parameter: half-life at 20 µM

[
  {
    "molecule": "Cc1noc(-c2cnc(NC3CCCC3)c(NC3CCCC3)c2)n1 [TH-4-67]",
    "parameter": "half-life at 20 µM",
    "measurement": "> 2 h"
  },
  {
    "molecule": "Cc1noc(-c2cnc(NC3CCCCC3)c(NC3CCCCC3)c2)n1 [TH-2-31]",
    "parameter": "half-life at 20 µM",
    "measurement": "> 2 h"
  },
  {
    "molecule": "CCC(CC)Nc1cc(-c2nc(C)no2)cnc1NC1CCCCC1 [TH-4-55-2]",
    "parameter": "half-life at 20 µM",
    "measurement": "> 2 h"
  }
]
